A collection of compounds and their measured log10 IC50
Molecular target: Human immunodeficiency virus type 1 reverse transcriptase (Human immunodeficiency virus 1, UniProt Q72547)
# values: log10(IC50), units nM

Quick check: log10 IC50 of Cc1cc(/C=C/C#N)cc(C)c1Oc1nc(NC2CCN(Cc3ccc(S(C)(=O)=O)cc3)CC2)nc2c1COC2 ?
2.18

Continuing:
Bench note: what log10 IC50 did Cc1cc(/C=C/C#N)cc(C)c1Oc1nc(NC2CCN(Cc3ccc([N+](=O)[O-])cc3)CC2)nc2c1COC2 show?
2.26

Requested field: log10 IC50. Item: Cc1cc(/C=C/C#N)cc(C)c1Oc1nc(Nc2ccc(CN3CCN(S(N)(=O)=O)CC3)cc2)nc2c1COC2
2.45

Which log10 IC50 value is on record for Cc1cc(/C=C/C#N)cc(C)c1Oc1nc(NC2CCN(c3ccc(S(N)(=O)=O)cc3)CC2)nc2c1COC2 ?
1.78

What measured log10 IC50 goes with Cc1cc(/C=C/C#N)cc(C)c1Oc1nc(Nc2ccc(N3CCC(NS(N)(=O)=O)CC3)cc2)nc2c1COC2 ?
3.12

What measured log10 IC50 goes with Cc1cc(/C=C/C#N)cc(C)c1Oc1nc(NC2CCN(c3ccc(NS(N)(=O)=O)cc3)CC2)nc2c1COC2 ?
2.08

Give its log10 IC50 value. Item: Cc1cc(/C=C/C#N)cc(C)c1Oc1nc(Nc2ccc(C#N)cc2)nc2c1COC2
1.78

Look up log10 IC50 for this compound: Cc1cc(/C=C/C#N)cc(C)c1Oc1nc(Nc2ccc(C3CCCN(S(C)(=O)=O)CC3)cc2)nc2c1COC2 (stereo not drawn)
2.36

###

Tested on: Human immunodeficiency virus 1
Assay: Antiviral activity against HIV-1 IIIB harboring K103N/Y181C double mutant
Format: functional, organism-based
Conditions: Human immunodeficiency virus 1, IIIB
assayMetric: EC50
I'd appreciate it if you wrote the number followed by its unit.

Would you mind telling me what EC50 value was observed for Cn1c(Cn2ccc(C(F)(F)F)c(Oc3cc(Cl)cc(C#N)c3)c2=O)n[nH]c1=O [DORAVIRINE] ?
14.5 nM

###

Experiment: Selectivity index, ratio of CC50 for human MT4 cells to EC50 for antiviral activity against HIV-1 IIIB infected in human MT4 cells
Type: toxicity, cell-based
Settings: MT4 cells (uninfected and infected with HIV-1 IIIB), read-out: Ratio CC50/EC50
Note to self: values exactly at 7000 are criterion met. So selectivity ratio at or above 7000 is criterion met, below is criterion not met.

Hi, just wondering whether Cc1cc(/C=C/C#N)cc(C)c1Oc1nc(NC2CCN(Cc3ccc(N)cc3)CC2)nc2c1COC2 shows selectivity ratio of 7000 or higher.
criterion met

Next:
Record Cc1cc(/C=C/C#N)cc(C)c1Oc1nc(NC2CCN(c3ccc(NS(N)(=O)=O)cc3)CC2)nc2c1COC2 ; criterion: selectivity ratio no lower than 7000. Met?
criterion not met

State whether the measured selectivity ratio reaches 7000, counting equality as reaching it, for Cc1cc(/C=C/C#N)cc(C)c1Oc1nc(NC2CCN(Cc3ccc([N+](=O)[O-])cc3)CC2)nc2c1COC2
criterion not met

Item Cc1cc(/C=C/C#N)cc(C)c1Oc1nc(NC2CCN(Cc3ccc(S(C)(=O)=O)cc3)CC2)nc2c1COC2 with selectivity ratio of 7000 or above?
criterion not met

Form field: selectivity ratio at least 7000? Entry: Cc1cc(/C=C/C#N)cc(C)c1Oc1nc(NC2CCN(c3ccc(S(N)(=O)=O)cc3)CC2)nc2c1COC2
criterion not met
